Every entry's value here was drawn from ChEMBL document CHEMBL4808165.

- protocolText: Aqueous solubility of the compound at pH 6.8
- Type: physicochemical
- settings: buffer
Positions of bridges follow the written chain, without caps; N, C: chain ends. Non-standard residues stand in square brackets, D forms with d. Residues, ends and D or L forms follow the SMILES beside them. NMeF = CN[C@@H](Cc1ccccc1)C(=O)O; NMeNle = CCCC[C@H](NC)C(=O)O; Nle = CCCC[C@H](N)C(=O)O
Reported values of solubility for individual entries
experimentalReadout: solubility

1) CCCC[C@@H]1NC(=O)[C@H](Cc2ccccc2)N(C)C(=O)[C@@H]2CCCN2C(=O)[C@H](CCCC)N(C)C(=O)[C@H](Cc2ccccc2)NC(=O)CSC[C@@H](C(=O)NC)NC(=O)[C@H](CCCC)N(C)C1=O ({CH2CO}-F[NMeNle]P[NMeF][Nle][NMeNle]C-NHMe; thioether N-7)	9 µM
2) CCCC[C@@H]1NC(=O)[C@H](CCCC)N(C)C(=O)[C@H](CCCC)NC(=O)[C@H](Cc2ccccc2)N(C)C(=O)[C@H]([C@@H](C)O)NC(=O)[C@H](CCCC)N(C)C(=O)[C@@H](Cc2ccccc2)NC(=O)CSC[C@@H](C(=O)NC)NC1=O	< 4 µM
3) CCCC[C@@H]1NC(=O)[C@H](CCCC)N(C)C(=O)[C@H](CCCC)NC(=O)[C@H](CCCC)N(C)C(=O)[C@H](CCCC)NC(=O)[C@H](CCCC)N(C)C(=O)[C@@H](Cc2ccccc2)NC(=O)CSC[C@@H](C(=O)NC)NC1=O	< 4 µM
4) CCCC[C@@H]1NC(=O)[C@H](Cc2ccccc2)NC(=O)CSC[C@H](C(=O)NC)NC(=O)[C@H](CCCC)NC(=O)[C@H](CCCC)NC(=O)[C@H](CCCC)NC1=O	< 4 µM
5) CCCC[C@@H]1NC(=O)[C@H](Cc2ccccc2)NC(=O)CSC[C@@H](C(=O)NC)NC(=O)[C@H](CCCC)N(C)C(=O)[C@H](CCCC)N(C)C(=O)[C@H](CCCC)N(C)C(=O)[C@H](CCCC)NC(=O)[C@H](CCCC)N(C)C1=O ({CH2CO}-F[Nle][NMeNle][Nle][NMeNle][NMeNle][NMeNle]C-NHMe; thioether N-8)	< 4 µM
6) CCCC[C@@H]1NC(=O)[C@H](CCCC)N(C)C(=O)[C@@H]2CCCN2C(=O)[C@H](CCCC)N(C)C(=O)[C@H](Cc2ccccc2)NC(=O)CSC[C@@H](C(=O)NC)NC(=O)[C@H](CCCC)N(C)C1=O ({CH2CO}-F[NMeNle]P[NMeNle][Nle][NMeNle]C-NHMe; thioether N-7)	9 µM
